read-out: TIMP metallopeptidase inhibitor 1 (TIMP1), TIMP1 (gene 7076); experiment: BSK_hDFCGF_TIMP1: BioMAP Diversity Plus: hDFCGF Assay for TIMP metallopeptidase inhibitor 1 (TIMP1) Biomarker Activity (AID 2283062); settings: primary human foreskin fibroblasts; actives raise or lower the signal
Calls of active or inactive are those of the source. Rule for the calls: active = hit-call score of the fitted dose curve at least 0.9, where 1 is the maximum; inactive = score below 0.9.
Classes used: active, inactive

- Compound Structure: "c1ccc2cc3c(ccc4ccccc43)cc2c1"
  Class Label: "inactive"
- Compound Structure: "NCC(F)(F)C(F)(F)C(F)(F)C(F)(F)C(F)(F)C(F)(F)C(F)(F)F"
  Class Label: "inactive"
- Compound Structure: "O=C(O)c1ccccc1C(c1ccc(O)cc1)c1ccc(O)cc1"
  Class Label: "inactive"
- Compound Structure: "NC(=O)N(O)[C@@H]1C=C[C@H](Oc2cccc(Oc3ccc(F)cc3)c2)C1"
  Class Label: "inactive"
- Compound Structure: "CC[C@H](C)[C@@H](C(=O)O)n1sc2ccccc2c1=O"
  Class Label: "inactive"
- Compound Structure: "ClC1=C(Cl)C(Cl)(Cl)C(Cl)=C1Cl"
  Class Label: "active"
